- System: RXF 393
- Run description: NCI tumour cell line growth inhibition, 48 h
Activity calls are given as the source filed them. Rule as the data show it: active = GI50 up to about 1.1 µM and inactive = higher.
Field: GI50. Provide a value for each of the compounds that follow.

// worked examples, GI50 included
{"Compound": "COc1ccc(C(=O)C(C(=O)C(=O)Nc2ccc(Cl)c(Cl)c2)c2ccc(OC)cc2)cc1 (stereo unspecified)", "GI50": "> 100 µM (inactive)"}
{"Compound": "COC(=O)CC(C)(N[S+]([O-])c1ccc(C)cc1)c1ccccc1 (stereo unspecified)", "GI50": "> 100 µM (inactive)"}
{"Compound": "CCCCCN(CCCCC)C(=O)[C@H](CCC(=O)OCc1ccccc1)NC(=O)c1cc2ccccc2[nH]1", "GI50": "> 100 µM (inactive)"}
{"Compound": "O=C1CC2(CCC(O)(c3ccc4ccccc4c3)C(C(=O)c3ccc4ccccc4c3)C2)C(=O)c2ccccc2N1 (stereo unspecified)", "GI50": "> 100 µM (inactive)"}
{"Compound": "O=C1CCCCCCCCCCOC(=O)CCCCCCCCCCO1", "GI50": "> 100 µM (inactive)"}
{"Compound": "CCOC(=O)c1nc2cc(Cl)ccc2[nH]c1=O", "GI50": "> 100 µM (inactive)"}
{"Compound": "Cc1cc(S(=O)(=O)NC2=NCc3nc4ccccc4n32)c(S)cc1Cl", "GI50": "12.9 µM (inactive)"}
{"Compound": "O=C1CCC(=O)N1CNc1ccc2c(c1)S(=O)(=O)c1ccccc1O2", "GI50": "> 100 µM (inactive)"}

Quick request: GI50 for each listed item, please.
1. c1ccc(-c2cc(-c3cccs3)c(-c3cccs3)s2)cc1
2. N=c1oc2ccccc2cc1C(=O)Nc1ccccn1
3. Cn1cc(S(=O)(=O)NC(=O)Nc2ccc(Cl)cc2)c(=O)c2ccc(F)cc21

Reply text:
1. 16.6 µM (inactive)
2. > 100 µM (inactive)
3. > 100 µM (inactive)

Please go through the list and note GI50 for each compound.
1. CN(C)c1cccc2c1C(=O)C=CC21CCc2ccc(N(C)C)c3c(N(C)C)ccc1c23 (stereo unspecified)
2. [O-][S+]1c2ccccc2N=C(c2ccc3ccccc3c2)CC1c1ccccc1F (stereo unspecified)
3. Cc1cc(NS(=O)(=O)c2ccc(NC(=O)c3ccc(Cl)c4c(Nc5ccc(S(=O)(=O)N=C(N)N)cc5)c5ccccc5nc34)cc2)no1
4. Cc1n[nH]c(=O)n1-n1cccc1
5. CCN(CC)CCN1c2ccccc2Sc2ccc3ccccc3c21
6. Oc1ccc(-c2nc(-c3cccnc3)c(-c3ccc(F)cc3)[nH]2)cc1
7. O=S(=O)(c1ccc(Br)cc1)N1CCN(S(=O)(=O)c2ccc(Br)cc2)CC1
8. Cn1cccc1-c1ccc(-c2ccc(CO)[se]2)[se]1

Reply text:
7.38 µM (inactive)
> 100 µM (inactive)
19.2 µM (inactive)
> 100 µM (inactive)
2.12 µM (inactive)
17.6 µM (inactive)
> 100 µM (inactive)
5.66 µM (inactive)

For the 2 compounds below, give their GI50 values.
1. NC(=O)c1ccccc1NC(=O)C(=O)Cc1nc2ccccc2nc1O
2. COC(=O)N[C@H](C(=O)O)C(C)O[Si](C)(C)C(C)(C)C (stereo partly specified)

Reply text:
1. > 100 µM (inactive)
2. > 100 µM (inactive)
